These data points were gathered from PubChem BioAssay (NCI).

System: SNB-75 CNS
Assay: NCI tumour cell line growth inhibition, 48 h
Listing: TGI of selected compounds

# COMPOUND, TGI
measured = [
    ("COc1ccc2nc3cc(Cl)ccc3c(Sc3ccc([N+](=O)[O-])cc3C)c2c1", "> 100 µM"),
    ("O=C1C=C(Nc2ccccc2C(=O)CC(=O)C(=O)Nc2cccc([N+](=O)[O-])c2)c2ccccc2C1=O", "> 100 µM"),
    ("CC(=O)OC1OC([C@H]2c3cccc(O)c3C(=O)c3c(O)cc(C)cc32)C(O)C(O)C1O (stereo partly specified)", "2.74 µM"),
    ("O=S(=O)(C1=CC(S(=O)(=O)c2ccccc2)CN(Cc2ccccc2)C1c1cccc2ccccc12)c1ccccc1 (stereo unspecified)", "> 69 µM"),
    ("CC1(c2cccc(C3CC4(CCC3=O)OCCCCO4)c2)OCCO1 (stereo unspecified)", "> 100 µM"),
    ("COc1cc(C=O)c(-c2c(C=O)ccc3c2OCO3)c(OC)c1OC", "> 100 µM"),
    ("O=C(Nc1ccc(Cl)cc1)C1C(=O)C(=O)N(c2ccc(Cl)cc2)C1=O (stereo unspecified)", "> 100 µM"),
    ("O=C(NC1=C(Cl)C(=O)c2ccccc2C1=O)c1ccccc1", "> 100 µM"),
    ("CCOP(=Nc1ccc(N(C)C)cc1)(OCC)OCC", "> 100 µM"),
    ("O=C(Nc1cccc(O)c1)C(=O)C1C(=O)NC(=S)NC1=O", "> 100 µM"),
    ("COc1ccc(Cn2c(=O)c(OC)c(C)c3cc4ccccc4cc32)cc1", "> 100 µM"),
]
